System: SNB-75 CNS
assay.method.text: NCI-60 one-dose screen, 48 h
measurement.setup: 10 µM
About 83,000 compounds went through this panel and 20% of them were active in at least one assay; those are over-represented in the sample as a whole. Calls of active or inactive are those of the source. Rule for the calls: active = growth percent below 10; inactive = the rest.
Your response should consist of one outcome taken from 1.0 for active, 0.0 for inactive

O=C(O)c1cc(Cc2ccc(O)c(C(=O)O)c2)ccc1O (tested in a mixture with another compound) : 0.0
CCOP(=O)(OCC)/C(C#N)=C/c1ccc(Br)cc1 : 0.0
C[C@@H]1C[C@@H]([C@H](O)CC2CC(=O)NC(=O)C2)C(=O)[C@@H](C)C1 : 1.0
Oc1c(Cl)cc(Cl)c2ccccc12.[Cu+2] : 0.0
COc1ccc(/C=C(\C)[N+](=O)[O-])cc1OC : 0.0

Incoming: Record lookup: outcome of this test for `O=[N+]([O-])c1ccc(N2CCOCC2)c2c1no[n+]2[O-]` ?
Outgoing: 1.0

Incoming: Record lookup: outcome of this test for `O=C(CBr)Nc1ccccc1` ?
Outgoing: 0.0

Incoming: Record lookup: outcome of this test for `O=C(CCl)Nc1ccc(Cl)cc1` ?
Outgoing: 0.0

Incoming: Record lookup: outcome of this test for CC(Cc1ccc2c(c1)OCO2)NN (stereo unspecified) ?
Outgoing: 0.0

Incoming: Record lookup: outcome of this test for `Cc1cc(C)c(C[N+](C)(C)C)c(C)c1C` ?
Outgoing: 1.0

Incoming: Record lookup: outcome of this test for `NC(=O)c1cc([N+](=O)[O-])c(Cl)c([N+](=O)[O-])c1` ?
Outgoing: 0.0

Incoming: Record lookup: outcome of this test for `Oc1c(I)cc(I)cc1I` ?
Outgoing: 0.0

Incoming: Record lookup: outcome of this test for `O=C(CBr)Nc1ccc(Cl)cc1` ?
Outgoing: 0.0

Incoming: Record lookup: outcome of this test for COC12C(COC(N)=O)C3=C(C(=O)C(C)=C(N)C3=O)N1CC1C2N1C (stereo unspecified) ?
Outgoing: 0.0

----------
Tested on: TK-10 renal
assay.method.text: NCI-60 one-dose screen, 48 h (100 = growth as untreated, 0 = no growth, -100 = all killed)
measurement.setup: 10 µM unless noted
The panel holds about 83,000 compounds, 20% with a hit somewhere; the sample as a whole holds those more often. Calls of active or inactive are those of the source. The calls were made as follows: active = growth percent below 10; inactive = the rest.
value.kind: growth

// known answers, use as guide
C[CH2][Hg][S]c1ccccc1C(=O)O : -94.2% (active)
O=C(O)c1cc(Cc2ccc(O)c(C(=O)O)c2)ccc1O (tested in a mixture with another compound) : 93% (inactive)
CCCCCCCC[N+]12CN3CN(CN(C3)C1)C2 : 99.8% (inactive)
COc1ccc2c(ccc3oc([N+](=O)[O-])cc32)c1 : -15% (active)
Cc1cc(C(C)(C)c2ccc(O)c(C)c2)ccc1O : 98.9% (inactive)
S=C=NCCc1ccccc1 : 78.9% (inactive)
O=C(CBr)Nc1ccc(Cl)cc1 : 111% (inactive)
CC(C)(C)OOC(=O)/C=C\C(=O)OOC(C)(C)C : 101% (inactive)

Incoming: Consider the molecule shown here: `CC/C(=C/c1ccc(OC)cc1OC)[N+](=O)[O-]` What is its recorded growth?
Outgoing: 11.1% (inactive)

Incoming: Consider the molecule shown here: `O=C1CCC(=O)N1SC(Cl)(Cl)Cl` What is its recorded growth?
Outgoing: 99.2% (inactive)

Incoming: Consider the molecule shown here: `Oc1c(Cl)cc(Cl)c2ccccc12.[Cu+2]` What is its recorded growth?
Outgoing: 119% (inactive)

Incoming: Consider the molecule shown here: `[Cl][Hg][c]1ccc(Cl)s1` What is its recorded growth?
Outgoing: 30.9% (inactive)

Incoming: Consider the molecule shown here: COc1ccccc1[As]=[As]c1ccccc1OC (stereo not drawn) What is its recorded growth?
Outgoing: -95.8% (active)
